Entry source: patent US20050013808A1

Score overview
Test system: UT5600 cells (NTR−) lysogens
Test: Replica-plate screening of mutant NTR-expressing lysogens on increasing CB1954 (growth score)
Type: cell-based, E. coli
Set-up: key: 0: Good growth on all concentrations of CB 1954 = vector; Good growth on 100 and 200, faint on 300, ring of growth on 400 μM; Good growth on 100 and 200, ring growth on 300, none or very faint on 400 μM; Good growth on 100, faint to good on 200, none or very faint on 300 and 400 μM; 4: Good growth on 100 μM, none to ring growth on 200 μM = wild type; Good growth on 50 μM, ring on 100 μM, none on 200, 300 or 400 μM; 6: Faint growth on 50 μM, ring on 100 μM; 7: Good growth on 50 μM, none on 100 μM; 8: Ring growth on 50 μM, none on 100 μM; 9: None or very faint growth on 50 μM, none on 100 μM; 10: None or ring growth on 35 μM
Settings: growth of lysogens on agar with kanamycin, IPTG and 0-400 μM CB1954; wild type = 4, higher = more sensitive
Method: The ligation mix was packaged (Stratagene) into lambda bacteriophage particles that were used to infect UT5600 cells (NTR ^−). As a control wild type NTR was also cloned into this vector (JG16C2). Kanamycin resistant lysogens were selected on agar plates ([…] kanamycin) then individually grown overnight in a well of a 96-well plate in LB+Kanamycin. […]
Form: value (number only, do not type unit).

| molecule | numeric_readout |
| --- | --- |
| S40T (protein) MDIISVALKRHSTKAFDASKKLTPEQAEQIKTLLQYSPSTTNSQPWHFIVASTEEGKARVAKSAAGNYVFNERKMLDASHVVVFCAKTAMDDVWLKLVVDQEDADGRFATPEAKAANDKGRKFFADMHRKDLHDDAEWMAKQVYLNVGNFLLGVAALGLDAVPIEGFDAAILDAEFGLKEKGYTSLVVVPVGHHSVEDFNATLPKSRLPQNITLTEV | 5 |

Lookup result for Y68G: NTR mutant, tyrosine 68 to glycine (protein) MDIISVALKRHSTKAFDASKKLTPEQAEQIKTLLQYSPSSTNSQPWHFIVASTEEGKARVAKSAAGNGVFNERKMLDASHVVVFCAKTAMDDVWLKLVVDQEDADGRFATPEAKAANDKGRKFFADMHRKDLHDDAEWMAKQVYLNVGNFLLGVAALGLDAVPIEGFDAAILDAEFGLKEKGYTSLVVVPVGHHSVEDFNATLPKSRLPQNITLTEV ; measured Score: 7

Lookup result for F124M (protein) MDIISVALKRHSTKAFDASKKLTPEQAEQIKTLLQYSPSSTNSQPWHFIVASTEEGKARVAKSAAGNYVFNERKMLDASHVVVFCAKTAMDDVWLKLVVDQEDADGRFATPEAKAANDKGRKFMADMHRKDLHDDAEWMAKQVYLNVGNFLLGVAALGLDAVPIEGFDAAILDAEFGLKEKGYTSLVVVPVGHHSVEDFNATLPKSRLPQNITLTEV ; measured Score: 9
